The reported measurements were obtained from patent US20030064954A1.

# Tested on: CVI-P cells
# protocol_text: Cytotoxicity of amphiphile/DNA complexes, percentage of survived cells
# measurement_conditions: amphiphile/DNA +/− charge ratio 1
# cytotoxicity as a percentage of survived cells values compiled below

Lookup: Supply recorded cytotoxicity as a percentage of survived cells for `CCCCCCCCCCCCCCCCOC(=O)C1=C(C[n+]2ccccc2)NC(C[n+]2ccccc2)=C(C(=O)OCCCCCCCCCCCCCCCC)C1c1ccccc1.[Br-].[Br-]` here.
Found: 99,29%

Lookup: Supply recorded cytotoxicity as a percentage of survived cells for `CCCCCCCCCCCCOC(=O)C1=C(C)NC(C)=C(C(=O)OCCCCCCCCCCCC)C1c1ccc[n+](C)c1.I.[I-]` here.
Found: 87,18%

Lookup: Supply recorded cytotoxicity as a percentage of survived cells for `CCCCCCCCCCCCCCOC(=O)C1=C(C)NC(C)=C(C(=O)OCCCCCCCCCCCCCC)C1c1ccc[n+](C)c1.I.[I-]` here.
Found: 89,46%

Lookup: Supply recorded cytotoxicity as a percentage of survived cells for `CCCCCCCCCCCCCCCC(=O)OCCOC(=O)C1=C(C)NC(C)=C(C(=O)OCCOC(=O)CCCCCCCCCCCCCCC)C1c1ccc[n+](C)c1.I.[I-]` here.
Found: 94,83%

* * *

# Tested on: CVI-P cells
# protocol_text: Cytotoxicity of amphiphile/DNA complexes, percentage of survived cells
# measurement_conditions: amphiphile/DNA +/− charge ratio 1
# cytotoxicity as a percentage of survived cells values compiled below

Record excerpt, results attached:
CCCCCCCCCCCCCCCCOC(=O)C1=C(C)NC(C)=C(C(=O)OCCCCCCCCCCCCCCCC)C1c1ccc[n+](CC(N)=O)c1.I.[I-]; 110,76%
CCCCCCCCCCCCOC(=O)C1=C(C[n+]2ccccc2)NC(C[n+]2ccccc2)=C(C(=O)OCCCCCCCCCCCC)C1c1ccccc1.[Br-].[Br-]; 94,54%
CCCCCCCCCCOC(=O)C1=C(C[n+]2ccccc2)NC(C[n+]2ccccc2)=C(C(=O)OCCCCCCCCCC)C1c1ccccc1.[Br-].[Br-]; 87,2%
CCCCCCCCCCCCCCOC(=O)C1=C(C[n+]2ccccc2)NC(C[n+]2ccccc2)=C(C(=O)OCCCCCCCCCCCCCC)C1c1ccccc1.[Br-].[Br-]; 98,12%
CCCCCCCCCCCCCCCC(=O)OCCCOC(=O)C1=C(C)NC(C)=C(C(=O)OCCCOC(=O)CCCCCCCCCCCCCCC)C1c1ccc[n+](C)c1.I.[I-]; 81,86%

Lookup: Supply recorded cytotoxicity as a percentage of survived cells for CCCCCCCC/C=C\CCCCCCCC(=O)OCC(C[N+](C)(C)C)OC(=O)CCCCCCC/C=C\CCCCCCCC.[Cl-] (stereo not drawn) [DOTAP, reference compound] here.
Found: 92,09%

Lookup: Supply recorded cytotoxicity as a percentage of survived cells for `CCCCCCCCCCCCCCCCOCCCOC(=O)C1=C(C)NC(C)=C(C(=O)OCCCOCCCCCCCCCCCCCCCC)C1c1ccc[n+](C)c1.[I-]` here.
Found: 101,24%

Lookup: Supply recorded cytotoxicity as a percentage of survived cells for `CCCCCCCCCCCCCCCCOC(=O)C1=C(C)NC(C)=C(C(=O)OCCCCCCCCCCCCCCCC)C1c1ccc[n+](C)c1.I.[I-]` here.
Found: 97,03%

Lookup: Supply recorded cytotoxicity as a percentage of survived cells for `Br.CCCCCCCCCCCCCCCC[n+]1cccc(C2C(C(=O)OCCCCCCCCCCCCCC)=C(C)NC(C)=C2C(=O)OCCCCCCCCCCCCCC)c1.[Br-]` here.
Found: 85,31%

Lookup: Supply recorded cytotoxicity as a percentage of survived cells for Br.CCCCCCCCCCCCCCCC[n+]1cccc(C2C(C(=O)OC3CC(C)CCC3C(C)C)=C(C)NC(C)=C2C(=O)OC2CC(C)CCC2C(C)C)c1.[Br-] (stereo not drawn) here.
Found: 83,94%

Lookup: Supply recorded cytotoxicity as a percentage of survived cells for `Br.CCCCCCCCCCCCCCOC(=O)C1=C(C)NC(C)=C(C(=O)OCCCCCCCCCCCCCC)C1c1ccc[n+](CCCCCCCCC)c1.[Br-]` here.
Found: 93,16%

Lookup: Supply recorded cytotoxicity as a percentage of survived cells for `CCCCCCCCCCOC(=O)C1=C(C[N+](C)(C)CCCCCCCC)NC(C[N+](C)(C)CCCCCCCC)=C(C(=O)OCCCCCCCCCC)C1c1ccccc1.[Br-].[Br-]` here.
Found: 98,37%

* * *

# Test system: D 407 cells
# protocol_text: Cytotoxicity of amphiphile/DNA complexes, percentage of survived cells
# Format: cell-based, human
# Parameters: concentration or dose not given beside the values
# measurement_conditions: amphiphile/DNA +/− charge ratio 8
measured_quantity: cytotoxicity as a percentage of survived cells

Record excerpt, results attached:
CCCCCCCCCCCCCCOC(=O)C1=C(C[n+]2ccccc2)NC(C[n+]2ccccc2)=C(C(=O)OCCCCCCCCCCCCCC)C1c1ccccc1.[Br-].[Br-] [XXIV]; 51,24%
CCCCCCCCCCCCCCCC(=O)OCCOC(=O)C1=C(C)NC(C)=C(C(=O)OCCOC(=O)CCCCCCCCCCCCCCC)C1c1ccc[n+](C)c1.I.[I-] [I]; 26,92%
CCCCCCCCCCCCOC(=O)C1=C(C)NC(C)=C(C(=O)OCCCCCCCCCCCC)C1c1ccc[n+](C)c1.I.[I-] [V]; 0,28%
CCCCCCCCCCCCCCCCOC(=O)C1=C(C)NC(C)=C(C(=O)OCCCCCCCCCCCCCCCC)C1c1ccc[n+](C)c1.I.[I-] [VII]; 51,38%

Next compound, please.
Lookup: Supply recorded cytotoxicity as a percentage of survived cells for CCCCCCCCCCCCOC(=O)C1=C(C[n+]2ccccc2)NC(C[n+]2ccccc2)=C(C(=O)OCCCCCCCCCCCC)C1c1ccccc1.[Br-].[Br-] [XXIII] here.
Found: 11,98%

* * *

# Test system: CVI-P cells
# protocol_text: Cytotoxicity of amphiphile/DNA complexes, percentage of survived cells
# measurement_conditions: amphiphile/DNA +/− charge ratio 4
measured_quantity: cytotoxicity as a percentage of survived cells

Br.CCCCCCCCCCCCCCCC[n+]1cccc(C2C(C(=O)OCCCCCCCCCCCCCC)=C(C)NC(C)=C2C(=O)OCCCCCCCCCCCCCC)c1.[Br-]; 67,45%
CCCCCCCCCCCCCCCCOC(=O)C1=C(C)NC(C)=C(C(=O)OCCCCCCCCCCCCCCCC)C1c1ccc[n+](CC(N)=O)c1.I.[I-]; 71,98%
CCCCCCCCCCCCOC(=O)C1=C(C[n+]2ccccc2)NC(C[n+]2ccccc2)=C(C(=O)OCCCCCCCCCCCC)C1c1ccccc1.[Br-].[Br-]; 89,35%
CCCCCCCCCCCCCCOC(=O)C1=C(C)NC(C)=C(C(=O)OCCCCCCCCCCCCCC)C1c1ccc[n+](C)c1.I.[I-]; 45,6%
CCCCCCCCCCCCCCCCOC(=O)C1=C(C)NC(C)=C(C(=O)OCCCCCCCCCCCCCCCC)C1c1ccc[n+](C)c1.I.[I-]; 99,84%
CCCCCCCCCCCCOC(=O)C1=C(C)NC(C)=C(C(=O)OCCCCCCCCCCCC)C1c1ccc[n+](C)c1.I.[I-]; 40,55%

Lookup: Supply recorded cytotoxicity as a percentage of survived cells for `CCCCCCCCCCCCCCCCOC(=O)C1=C(C[n+]2ccccc2)NC(C[n+]2ccccc2)=C(C(=O)OCCCCCCCCCCCCCCCC)C1c1ccccc1.[Br-].[Br-]` here.
Found: 107,03%

Lookup: Supply recorded cytotoxicity as a percentage of survived cells for `CCCCCCCCCCCCCCCC(=O)OCCOC(=O)C1=C(C)NC(C)=C(C(=O)OCCOC(=O)CCCCCCCCCCCCCCC)C1c1ccc[n+](C)c1.I.[I-]` here.
Found: 78,43%

Lookup: Supply recorded cytotoxicity as a percentage of survived cells for `CCCCCCCCCCCCCCOC(=O)C1=C(C[n+]2ccccc2)NC(C[n+]2ccccc2)=C(C(=O)OCCCCCCCCCCCCCC)C1c1ccccc1.[Br-].[Br-]` here.
Found: 88,19%

Lookup: Supply recorded cytotoxicity as a percentage of survived cells for Br.CCCCCCCCCCCCCCCC[n+]1cccc(C2C(C(=O)OC3CC(C)CCC3C(C)C)=C(C)NC(C)=C2C(=O)OC2CC(C)CCC2C(C)C)c1.[Br-] (stereo not shown) here.
Found: 9,08%

Lookup: Supply recorded cytotoxicity as a percentage of survived cells for `Br.CCCCCCCCCCCCCCOC(=O)C1=C(C)NC(C)=C(C(=O)OCCCCCCCCCCCCCC)C1c1ccc[n+](CCCCCCCCC)c1.[Br-]` here.
Found: 34,5%

Lookup: Supply recorded cytotoxicity as a percentage of survived cells for `CCCCCCCCCCCCCCCC(=O)OCCCOC(=O)C1=C(C)NC(C)=C(C(=O)OCCCOC(=O)CCCCCCCCCCCCCCC)C1c1ccc[n+](C)c1.I.[I-]` here.
Found: 54,84%

Lookup: Supply recorded cytotoxicity as a percentage of survived cells for `CCCCCCCCCCCCCCCCOCCCOC(=O)C1=C(C)NC(C)=C(C(=O)OCCCOCCCCCCCCCCCCCCCC)C1c1ccc[n+](C)c1.[I-]` here.
Found: 79,08%
